Measured Kinetics kon, listed per entry for reference.
biological target: IGF2 (Homo sapiens, UniProt P01344); assay: SPR (Biacore T200) of recombinant IGF2R domain 11 mutants on immobilised biotinylated IGF2; type: binding; design: purchased GroPep; details: Table 1; 25° C., HBS-EP pH 7.4
Sequence (P01344 25-91): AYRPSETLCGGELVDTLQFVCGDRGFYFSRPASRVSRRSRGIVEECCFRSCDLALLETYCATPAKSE
Measurement name: Kinetics kon (M⁻¹ s⁻¹)

1) S1600A: domain 11 AB5 background + FG loop S1600A (protein) MKSNEHDDCQVTNPSTGHLFDLSSLSGRAGFTAAYAKGWGVYMSICGENENCPPGVGACFGQTRISVGKANKRLRYVDQVLQLVYKDGSPCPAKSGLSYKSVISFVCRPEAGPTNRPMLISLDKQTCTLFFSWHTPLACEQATECSV ... 2.39e+06
2) Q1632K: domain 11 HI loop mutant Q1632K, probably AB5 background (protein) MKSNEHDDCQVTNPSTGHLFDLSSLSGRAGFTAAYAKGWGVYMSICGENENCPPGVGACFGQTRISVGKANKRLRYVDQVLQLVYKDGSPCPSKSGLSYKSVISFVCRPEAGPTNRPMLISLDKKTCTLFFSWHTPLACEQATECSV ... 1.96e+06
3) K1631W: domain 11 HI loop mutant K1631W, probably AB5 background (protein) MKSNEHDDCQVTNPSTGHLFDLSSLSGRAGFTAAYAKGWGVYMSICGENENCPPGVGACFGQTRISVGKANKRLRYVDQVLQLVYKDGSPCPSKSGLSYKSVISFVCRPEAGPTNRPMLISLDWQTCTLFFSWHTPLACEQATECSV ... 1.18e+06
